Sourced from the supplement of paper PMC11451515

cell viability overview
System: SEM cells
Assay: cell viability relative to DMSO control; higher = less cytotoxic
Conditions: RPMI 5 mM glucose + 10% dialyzed FBS; 48 h; 5.12 µM

| MOLECULE | cell viability / % |
| --- | --- |
| CCCC1=N[N](C)C2=C1\N=C(/NC2=O)C3=CC(=CC=C3OCC)[S+]([O-])(=O)N4CCN(C)CC4 | 88.1 |
| CC(=O)Oc1cc2c(s1)CCN(C(C(=O)C1CC1)c1ccccc1F)C2.Cl (stereo unspecified) | 115 |
| O=C(O)CSCC(=O)NC1CCSC1=O (stereo unspecified) | 118 |
| CCCCOc1ccc(CC(=O)NO)cc1 | 107 |
| Nc1nc2ccc(OC(F)(F)F)cc2s1 | 130 |
| CN(c1nccc(=O)[nH]1)C1CCN(c2nc3ccccc3n2Cc2ccc(F)cc2)CC1 | 101 |

----------
Tested on: SEM cells
Test: cell viability relative to DMSO control; higher = less cytotoxic
Details: RPMI 5 mM glucose + 10% dialyzed FBS; 48 h; 0.0632 µM
Here the recorded cell viability is given for each entry.

| MOLECULE | cell viability, % |
| --- | --- |
| O=C(c1ccc(/C=C/c2n[nH]c3ccccc23)cc1)N1CCNCC1 | 66.3 |
| COc1cccc2c(NCc3ccccc3)nc(-n3c(N)nc4ccccc43)nc12 | 111 |
| C[C@H]1C[C@H]2[C@@H]3CCC4=CC(=O)C=C[C@]4(C)[C@H]3C(=O)C[C@]2(C)[C@@]1(O)C(=O)CO | 77.5 |
| CC(C[N+](C)(C)C)OC(N)=O (configuration not stated) | 120 |
| C=CCc1cc(OC)c(O)c(C(=O)NCCO)c1 | 105 |
| CCCNCC(O)COc1ccccc1C(=O)CCc1ccccc1 (configuration not stated) | 102 |
| C[C@]12CC[C@@H]3c4ccc(O)cc4CC[C@H]3[C@@H]1CC[C@@H]2O | 116 |
| CN(C)CC[C@H](CSc1ccccc1)Nc1ccc([S+](=O)([O-])NC(=O)c2ccc(N3CCN(Cc4ccccc4-c4ccc(Cl)cc4)CC3)cc2)cc1[N+](=O)[O-] | 57.4 |
| CC1=CC=C2\N=C/3N(CC[C@@]3(O)C(=O)C2=C1)C4=CC=CC=C4 | 92.6 |
| C[C@H]1[C@H](O)O[C@@H]2O[C@@]3(C)CC[C@H]4[C@H](C)CC[C@@H]1[C@@]24OO3 | 76 |
| Cc1cc(-c2nnc3n2CCCCC3)c(C)n1-c1ccccc1 | 95.3 |
| CCCc1nc2c(C)cc(-c3nc4ccccc4n3C)cc2n1Cc1ccc(-c2ccccc2C(=O)O)cc1 | 120 |

----------
Test system: P12-Ichikawa
Assay: cell viability relative to DMSO control; higher = less cytotoxic
Conditions: RPMI 5 mM glucose + 10% dialyzed FBS; 48 h; 0.00702 µM
READOUT TYPE: cell viability

| COMPOUND | READOUT TYPE | VALUE REPORTED |
| --- | --- | --- |
| O=C(O)CCNc1cc(N2CCc3ccccc3CC2)nc(-c2ccccn2)n1 | cell viability | 123% |
| O=C(NCCCNc1nc(Nc2cccc(NC(=O)N3CCCC3)c2)ncc1I)c1cccs1 | cell viability | 79.8% |
| C[C@@H](NCc1cc2ccccc2[nH]1)c1cccc2ccccc12 | cell viability | 83.2% |
| COc1ccccc1OCCNCC(O)COc1cccc2[nH]c3ccccc3c12 (stereo unspecified) | cell viability | 119% |
| CCCC(CCC)C(=O)[O-] | cell viability | 102% |
| CC1=CC=C2\N=C/3N(CC[C@@]3(O)C(=O)C2=C1)C4=CC=CC=C4 | cell viability | 84.1% |

----------
Reported cell viability by item:
System: P12-Ichikawa
Experiment: cell viability relative to DMSO control; higher = less cytotoxic
Conditions: HPLM + 10% dialyzed FBS; 48 h; 0.000781 µM
READOUT TYPE: cell viability (%)

| COMPOUND | UNIT NAME | VALUE REPORTED |
| --- | --- | --- |
| CN(C)CC[C@H](CSc1ccccc1)Nc1ccc([S+](=O)([O-])NC(=O)c2ccc(N3CCN(Cc4ccccc4-c4ccc(Cl)cc4)CC3)cc2)cc1[N+](=O)[O-] | % | 118 |
| Cc1ccc(NC(=O)c2cccc(N(C)C)c2)cc1NC(=O)c1ccc(O)cc1 | % | 120 |
| OC(CCN1CCCCC1)(C2CC\3CC2\C=C3)C4=CC=CC=C4 (stereo unspecified) | % | 118 |
| COc1cccc2c(NCc3ccccc3)nc(-n3c(N)nc4ccccc43)nc12 | % | 99 |
| CC1=CC=C2\N=C/3N(CC[C@@]3(O)C(=O)C2=C1)C4=CC=CC=C4 | % | 97.2 |
| CNNCc1ccc(C(=O)NC(C)C)cc1 | % | 118 |

----------
System: NOMO1
Test: cell viability relative to DMSO control; higher = less cytotoxic
Settings: RPMI 5 mM glucose + 10% dialyzed FBS; 48 h; 0.19 µM

| COMPOUND | ASSAY TARGET | UNIT NAME | cell viability |
| --- | --- | --- | --- |
| Cc1cc(-c2nnc3n2CCCCC3)c(C)n1-c1ccccc1 | NOMO1 | % | 113 |
| COc1ccc(C(=O)CC(=O)c2ccc(C(C)(C)C)cc2)cc1 | NOMO1 | % | 111 |
| COc1nccc(-c2c(-c3ccc(F)cc3)ncn2C2CCC(O)CC2)n1 (stereo unspecified) | NOMO1 | % | 118 |
| CCC[C@@H](C=O)NC(=O)[C@H](CC(C)C)NC(=O)[C@H](CC(C)C)NC(=O)OCc1ccccc1 | NOMO1 | % | 143 |
| O=C(NCCCNc1nc(Nc2cccc(NC(=O)N3CCCC3)c2)ncc1I)c1cccs1 | NOMO1 | % | 84.4 |
| OCCNC1CCCc2c1[nH]c1ccc(-c3ccccc3)cc21 (stereo unspecified) | NOMO1 | % | 99.4 |
| C/C(=C\c1csc(C)n1)[C@@H]1C[C@@H]2O[C@@H]2CCC[C@H](C)[C@H](O)[C@@H](C)C(=O)C(C)(C)[C@@H](O)CC(=O)O1 | NOMO1 | % | 20.9 |
| COc1ccc2c(OCc3nnc4ccc(-c5ccccc5)nn34)ccnc2c1 | NOMO1 | % | 102 |
| NC(=O)c1ccc(-c2nc(-c3ccc4c(c3)OCO4)c(-c3ccccn3)[nH]2)cc1 | NOMO1 | % | 110 |
| COCCCOc1ccnc(C[S+]([O-])c2nc3ccccc3[nH]2)c1C (stereo unspecified) | NOMO1 | % | 119 |
| O=C(O)c1ccc(-c2c[nH]c3ncc(-c4ccccc4)cc23)cc1C1CCCC1 | NOMO1 | % | 126 |
| OC1=CC2=C(C(=O)\C=C(/O2)C3=CC=CC=C3)C(=C1O)O | NOMO1 | % | 112 |
| NCCCC(O)(P(=O)(O)O)P(=O)(O)O.O.O.O.[Na+] | NOMO1 | % | 110 |
| Cc1ccc(NC(=O)Nc2cc(C(F)(F)F)ccc2F)cc1Nc1ccc2c(c1)NC(=O)/C2=C\c1ccc[nH]1 | NOMO1 | % | 150 |
| Cc1cccc(N(C)C(=S)Oc2ccc3ccccc3c2)c1 | NOMO1 | % | 95.2 |
| CCc1c(O)cc(O)c(C(=O)c2ccc(OCCN3CCOCC3)c(OC)c2)c1CC(=O)N(CCOC)CCOC | NOMO1 | % | 106 |

----------
Tested on: P12-Ichikawa
Assay: cell viability relative to DMSO control; higher = less cytotoxic
Conditions: RPMI 5 mM glucose + 10% dialyzed FBS; 48 h; 5.12 µM

| COMPOUND | UNIT NAME | cell viability |
| --- | --- | --- |
| COc1nccc(-c2c(-c3ccc(F)cc3)ncn2C2CCC(O)CC2)n1 (stereo not drawn) | % | 115 |
| CC(Cc1ccc(O)c(O)c1)(NN)C(=O)O (stereo not drawn) | % | 110 |
| CCN1\C=C(C(O)=O)/C(=O)C2=C1C=C(N3CCN(C)CC3)C(=C2)F | % | 83.1 |
| CC(C[N+](C)(C)C)OC(N)=O (stereo not drawn) | % | 122 |
| Cc1cc(-c2nnc3n2CCCCC3)c(C)n1-c1ccccc1 | % | 122 |
| CN1C2=CC(=O)/C(=N/NC(N)=O)C=C2CC1S(=O)(=O)[O-].[Na+] (stereo not drawn) | % | 110 |
| O=C(c1ccc(/C=C/c2n[nH]c3ccccc23)cc1)N1CCNCC1 | % | 29.6 |
| O=C(O)c1ccc(-c2c[nH]c3ncc(-c4ccccc4)cc23)cc1C1CCCC1 | % | 121 |

----------
Test system: SEM cells
Assay: cell viability relative to DMSO control; higher = less cytotoxic
Conditions: HPLM + 10% dialyzed FBS; 48 h; 0.0632 µM
Catalogue of compounds with associated cell viability
READOUT TYPE: cell viability (%)

| COMPOUND | READOUT TYPE | VALUE REPORTED |
| --- | --- | --- |
| CCOC(CN1C(=O)[C@](CC(=O)Nc2ccc(C)cc2)(NC(=O)Nc2ccc(C)cc2)c2ccccc21)OCC | cell viability | 105 |
| C=C[C@H]1CN2CCC1C[C@@H]2[C@@H](O)c1ccnc2ccccc12 (some centres not stated) | cell viability | 98.5 |
| CCC(=O)OC1CCC2C3CCC/4=C/C(=O)CC[C@@]4(C)C3CC[C@]12C (some centres not stated) | cell viability | 132 |
| CCCCOc1ccc(CC(=O)NO)cc1 | cell viability | 101 |
| FC1=CC=C(CN2\C=C/C=C(/C(=O)N[C@@H](COC3=CC4=C(NC(=O)N4)C=C3)C5=CC=CC=C5)C2=O)C=C1F | cell viability | 93.8 |
| CO[C@@H]1[C@@H](OC(N)=O)[C@@H](O)[C@H](OC2=CC=C3\C(=C(NC(=O)C4=CC=C([O-])C(=C4)CC=C(C)C)/C(=O)OC3=C2C)O)OC1(C)C | cell viability | 118 |
| C[C@H](NC(=O)Cc1cc(F)cc(F)c1)C(=O)N[C@@H]1C(=O)N(C)c2ccccc2-c2ccccc21 | cell viability | 102 |
| CC[C@H](NC(C)C)[C@H](O)c1ccc(O)c2[nH]c(=O)ccc12 | cell viability | 89.3 |
| CCCc1nc2c(C)cc(-c3nc4ccccc4n3C)cc2n1Cc1ccc(-c2ccccc2C(=O)O)cc1 | cell viability | 124 |
| Nc1nc(Nc2ccc([S+](N)(=O)[O-])cc2)nn1C(=O)c1c(F)cccc1F | cell viability | 104 |
| NC1CCC(Nc2nc(Nc3ccc(C(=O)N4CCCCC4)cc3)c3ncn(-c4cccc(F)c4)c3n2)CC1 (configuration not stated) | cell viability | 102 |
| O=C(Nc1ccc([N+](=O)[O-])cc1Cl)c1cc(Cl)ccc1O | cell viability | 99.7 |
| CCC[C@@H](C=O)NC(=O)[C@H](CC(C)C)NC(=O)[C@H](CC(C)C)NC(=O)OCc1ccccc1 | cell viability | 124 |
| CCNC(=O)Nc1ccc(-c2nc3c(c(N4CCOC[C@@H]4C)n2)CCN(C2COC2)C3)cc1 | cell viability | 108 |
| CC(C)(C)Cn1c(N)nc2ccc(-c3[nH]c(C(C)(C)C)nc3-c3ccc(F)cc3)nc21 | cell viability | 91.5 |
| OC1=CC2=C(C(=O)\C=C(/O2)C3=CC=CC=C3)C(=C1O)O | cell viability | 111 |
| CC(=O)Oc1cc2c(s1)CCN(C(C(=O)C1CC1)c1ccccc1F)C2.Cl (configuration not stated) | cell viability | 115 |
| CCOc1cc(/C=C2/C(=O)N(c3ccccc3)N=C2C)cc(Cl)c1OCC(=O)OC | cell viability | 81 |
| CN1\N=N/C2=C(N=C[N]2C1=O)C(N)=O | cell viability | 121 |
| Clc1ccccc1C(c1ccccc1)(c1ccccc1)n1cccn1 | cell viability | 113 |
| O=C(C1CC1)N1CC[C@@H](Cn2c(-c3ccc(-c4ccc5occc5c4)cc3)nc3cnccc32)C1 | cell viability | 98.8 |
| CC1=CC=C(C=C1)N(C\C2=N\CCN2)C3=CC=CC(=C3)O | cell viability | 117 |
